target: GST-tagged KRAS-G12D (2-169) (Homo sapiens, UniProt P01116, G12D); assay: Nucleotide exchange assay (NEA), SOS-mediated, HTRF, KRAS G12D; assay type: biochemical; conditions: Table 4; IC50 extracted at 30 min; 20 nM SOScat; read-out: NEA G12D IC50
Sequence (P01116 2-169 isoform P01116-2 G12D): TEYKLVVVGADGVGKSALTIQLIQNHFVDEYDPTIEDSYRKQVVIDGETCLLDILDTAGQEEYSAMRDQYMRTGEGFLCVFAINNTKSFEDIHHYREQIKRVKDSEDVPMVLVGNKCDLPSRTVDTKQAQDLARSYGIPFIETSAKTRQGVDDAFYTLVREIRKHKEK
pIC50: −log10 of the molar value.
MEASURED_PROPERTY: pIC50

{"columns": ["COMPOUND", "REPORTED_VALUE"],
 "data": [
  ["N#Cc1c(N)sc2c1C1(CN(c3nc(OCC4(CN5CCOCC5)CC4)nc(N4C[C@H]5CC[C@@H](C4)N5)n3)C1)SC2", "> 8.00"],
  ["CC(c1cc(Cl)nnc1N)N(C)c1nc(OC[C@@]23CCCN2C[C@H](F)C3)nc(N2CC3(CCc4sc(N)c(C#N)c43)C2)n1 (stereo partly drawn)", "7.00 to 8.00"],
  ["CC(c1ccns1)N(C)c1nc(OC[C@@]23CCCN2C[C@H](F)C3)nc(N2CC3(CCc4sc(N)c(C#N)c43)C2)n1 (stereo partly drawn)", "6.00 to 7.00"],
  ["N#Cc1c(N)sc2c1C1(CC2)CN(c2nc(OC[C@@]34CCCN3C[C@H](F)C4)nc(N3CCCOC[C@H]3CO)n2)C1", "7.00 to 8.00"],
  ["C[C@@H]1[C@H](CO)CCCN1c1nc(OC[C@@]23CCCN2C[C@H](F)C3)nc(N2CC3(CCc4sc(N)c(C#N)c43)C2)n1 (racemic)", "6.00 to 7.00"],
  ["CCN(c1nc(OCC2(COC)CCCC2)nc(N2CC3(C2)SCc2sc(N)c(C#N)c23)n1)[C@H](C)c1cccnc1N", "4.70 to 6.00"]
]}
